- assay_target: c-MER (Homo sapiens, UniProt Q12866)
- Sequence (Q12866 587-858 limits assumed): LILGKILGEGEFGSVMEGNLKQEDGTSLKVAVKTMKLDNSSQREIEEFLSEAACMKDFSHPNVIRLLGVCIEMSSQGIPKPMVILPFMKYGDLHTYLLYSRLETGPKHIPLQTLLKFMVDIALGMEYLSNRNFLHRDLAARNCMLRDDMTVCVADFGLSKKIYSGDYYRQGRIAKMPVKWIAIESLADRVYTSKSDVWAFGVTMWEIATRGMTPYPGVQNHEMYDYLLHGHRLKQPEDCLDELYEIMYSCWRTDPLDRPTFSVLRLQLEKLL
observable: IC50 (nM)
The reply should be a number in nM, with the unit left off.

May I ask what IC50 has been recorded for Cc1ccc(C(=O)Nc2ccc(CN3CCN(C)CC3)c(C(F)(F)F)c2)cc1C#Cc1cnc2cccnn12 [Compound 1] ?
406

---

- System: LAMA CML leukemia cells
- protocol_details: Cellular proliferation assay
observable: pIC50
Please express pIC50 as -log10 of the molar concentration.

May I ask what pIC50 has been recorded for Cc1ccc(C(=O)Nc2ccc(CN3CCN(C)CC3)c(C(F)(F)F)c2)cc1C#Cc1cnc2cccnn12 [Compound 1] ?
9.52

---

- Test system: FGFR3 signaling in MGH-U3 bladder cells (Y375C)
- protocol_details: Signaling (Western immunoblotting), Table 12
- measurement_conditions: read-out: Signaling IC50 (nM)
observable: IC50 (nM)
The reply should be a number in nM, with the unit left off.

May I ask what IC50 has been recorded for Cc1ccc(C(=O)Nc2ccc(CN3CCN(C)CC3)c(C(F)(F)F)c2)cc1C#Cc1cnc2cccnn12 ?
40

---

- assay_target: JAK2 (Homo sapiens)
- Sequence (O60674 849-1124 limits assumed): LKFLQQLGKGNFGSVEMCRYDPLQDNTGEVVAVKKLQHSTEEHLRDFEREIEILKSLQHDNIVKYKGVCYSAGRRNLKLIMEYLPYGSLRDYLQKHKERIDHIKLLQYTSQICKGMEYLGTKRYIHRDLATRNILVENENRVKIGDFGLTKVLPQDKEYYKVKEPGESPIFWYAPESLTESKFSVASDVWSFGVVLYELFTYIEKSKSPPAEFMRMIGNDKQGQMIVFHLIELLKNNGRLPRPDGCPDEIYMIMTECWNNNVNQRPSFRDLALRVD
observable: pIC50
Please express pIC50 as -log10 of the molar concentration.

Field: pIC50 (JAK2 (Homo sapiens)). Entry: Cc1ccc(C(=O)Nc2ccc(CN3CCN(C)CC3)c(C(F)(F)F)c2)cc1C#Cc1cnc2cccnn12
6.77

---

- Tested on: Phospho-FRS2a in MFE-296 cells
- protocol_details: Western immunoblotting
- measurement_conditions: Homo sapiens, MFE-296, read-out: Phospho-FRS2a IC50 (nM)
observable: IC50 (nM)
The reply should be a number in nM, with the unit left off.

May I ask what IC50 has been recorded for Cc1ccc(C(=O)Nc2ccc(CN3CCN(C)CC3)c(C(F)(F)F)c2)cc1C#Cc1cnc2cccnn12 ?
2.7

---

- Test system: SNU1 cells
- protocol_details: Soft agar colony formation assay
- Assay type: cell-based
- measurement_conditions: Homo sapiens, SNU1, read-out: Soft Agar IC50 (nM)
observable: IC50

May I ask what IC50 has been recorded for Cc1ccc(C(=O)Nc2ccc(CN3CCN(C)CC3)c(C(F)(F)F)c2)cc1C#Cc1cnc2cccnn12 ?
> 1000 nM

---

- assay_target: UniProtKB Q15303
- Sequence (Q15303 718-985 limits assumed): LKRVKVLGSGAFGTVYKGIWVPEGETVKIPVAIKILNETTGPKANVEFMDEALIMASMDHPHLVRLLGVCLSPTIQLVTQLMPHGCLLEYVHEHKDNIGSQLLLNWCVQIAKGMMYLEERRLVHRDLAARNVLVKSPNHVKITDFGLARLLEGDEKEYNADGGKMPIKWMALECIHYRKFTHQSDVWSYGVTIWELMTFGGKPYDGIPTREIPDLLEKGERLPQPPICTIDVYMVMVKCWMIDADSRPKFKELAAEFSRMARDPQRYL
- protocol_details: Kinase assay (RBC)
observable: IC50 (nM)
The reply should be a number in nM, with the unit left off.

May I ask what IC50 has been recorded for Cc1ccc(C(=O)Nc2ccc(CN3CCN(C)CC3)c(C(F)(F)F)c2)cc1C#Cc1cnc2cccnn12 ?
176

---

- Test system: FGFR2 signaling in SNU16 gastric cells (Amplified)
- protocol_details: cells
- measurement_conditions: Homo sapiens, SNU-16, read-out: Signaling IC50 (nM)
IC50 for assorted compounds
The reply should be a number in nM, with the unit left off.

INSERT INTO assay_data (compound, assay_target, observable, test_value) VALUES
  ('COC(=O)c1ccc2c(c1)NC(=O)/C2=C(\Nc1ccc(N(C)C(=O)CN2CCN(C)CC2)cc1)c1ccccc1 [BIBF 1120]', 'FGFR2 signaling in SNU16 gastric cells (Amplified)', 'IC50', 496);

May I ask what IC50 has been recorded for COc1cc2c(Oc3ccc4[nH]c(C)cc4c3F)ncnc2cc1OCCCN1CCCC1 [AZD 2171] ?
148

Where do these numbers come from? They come from patent US20120316137A1.
